Test: soluble fraction after stress (log2 fold change); higher = more stays soluble; pooled small domains, quantitative proteomics
Conditions: stress: 50 degC
# Lookup of reported soluble fraction (log2) keyed by entry
Endpoint Name: soluble fraction (log2)

                              sequence_code            endpoint_name  assay_result
0  HMNDIQIILQEAVARLPKKQQLVFNMKYFDHLKYQEISEILGTSVGGLKASYFQAVKKIENYIINKH  soluble fraction (log2)         -2.38
1  HMDFGMPEELQKKLDKMPALKAAFEALTPGRQRGYIFYFSQPKQSKTRELRIEKSIEQIMNGKGLND  soluble fraction (log2)        -0.115
2  HMPPPVDLDKKGYKLRGIVLEDGRSAAFVFVPAEKRVVVLRENASGPVRLLETGMRRIRLQTPEGAGYLEL  soluble fraction (log2)        -0.724
3  HMSEQSEALRTGLDQLPINQRTALTLFHLHELNQSEVAKIMNISVGAVESLLFRGRQKMKQLLTSD  soluble fraction (log2)        -0.725

Cited source: the domain aggregation screens of Martell et al. (2025)
